Data provenance: PubChem BioAssay AID1347417

# Test Description: qHTS Primary assay for Inhibitors of Plasmodium falciparum Dd2 growth in vitro; further: nearly all actives have a fitted effect of over 65% in size
# Condition Summary: P. falciparum Dd2 growth, SYBR Green, 72 h; series mostly up to 28.9 µM
Out of some 120,000 compounds screened, about 5,300 (4.4%) were called active. Another 22% or so got no clear call; they are omitted. The call rests on the fitted dose curve; in most records, active means well fitted inhibition curve with a large enough effect; inconclusive means small, poorly fitted or top-dose-only effect; inactive means no such curve, though single readings can be large or run the other way. Only a selection was taken, and actives are over-represented in it overall.
Labels: YES = active, NO = inactive

Molecule	Group Label
O=C(NC1CCCN(c2cc(-c3ccc(Cl)cc3)[nH]n2)C1)c1ccccc1F (centres undefined)	NO
COc1ccc(-c2cc(N3CCC(NC(=O)c4ccc5c(c4)OCO5)CC3)n[nH]2)cc1	NO
Cc1cc(C(=O)N2CCCCCCn3c(nnc3-c3ccc(F)cc3)CC2)nn1C	NO
O=C(NCCC1CCN(C(=O)Nc2ccccc2F)CC1)c1ccccc1	NO
COc1ccc(-c2cc(N3CCCC(NC(=O)c4ccsc4)C3)n[nH]2)cc1 (centres undefined)	NO
Cc1ccc(S(=O)(=O)Nc2nc3c(s2)C[C@@H]2[C@](C)(CO)[C@H](O)CC[C@@]2(C)[C@@H]3CC(=O)O)cc1	NO
Cc1ccc(-c2cn3c(n2)sc2cc(C(=O)NCc4cccs4)ccc23)c(C)c1	YES
COc1ccc(-c2cc(N3CCCC(NC(=O)c4cc(F)ccc4Cl)C3)n[nH]2)cc1 (centres undefined)	YES
COCC(=O)Nc1nc2c(s1)C[C@@H]1[C@](C)(CO)[C@H](O)CC[C@@]1(C)[C@@H]2CC(=O)NCCN1CCOCC1	NO
